Source of measurements: PubChem BioAssay AID1240

Could you please report measured displacement for the items listed next?
Biological target: Bcl-2-like protein 10 (Homo sapiens)
Experiment: TR3 peptide-Bcl-B binding displacers, biochemical primary FP assay, phenotype converters (AID 1240);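 further: 0% = Bcl-B with tracer peptide and DMSO and 100% = tracer peptide lacking Bcl-B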
Details: GST-Bcl-B / FITC-TR3 peptide fluorescence polarization; stronger effect = higher value; compound at 3.75 mg/L
Among all 50,000 compounds or so, about 800 (1.6%) showed an effect of 50% or more. The full list was thinned out, with strong results kept by preference.
Give bare numbers, in %.

molecule=N#C/C(=C\c1cccs1)c1nc(-c2ccc(Br)cc2)cs1 valuemeasured=5.9
molecule="O=C(CC1S/C(=N\\N=C\\c2ccccc2)NC1=O)Nc1ccc(C(=O)O)cc1 (stereo unspecified)" valuemeasured=69.5
molecule=Cc1ccc(-c2csc(/C(C#N)=C/c3ccsc3)n2)cc1 valuemeasured=-5.9

Look up displacement for the entries below, preserving their order.
1. N#C/C(=C\c1cccs1)c1nc(-c2ccc(Cl)cc2Cl)cs1
2. O=C(Cc1ccc(Cl)cc1)Nc1ccc(Cl)cn1
3. Cc1ccc(N2C(=O)NC(=O)/C(=C\c3ccc(-c4ccc(C)c([N+](=O)[O-])c4)o3)C2=O)cc1
4. O=C(CC1S/C(=N\N=C\c2cccs2)NC1=O)Nc1ccc(C(=O)O)cc1 (stereo unspecified)
5. O=C(NCCC(c1ccccc1)c1ccccc1)C(F)(F)F
6. Cc1c(Cl)cccc1-c1ccc(/C=C/c2cc(C(F)(F)F)[nH]c(=O)n2)o1
7. COc1ccc(N2C(=O)/C(=C/c3ccc(-c4ccccc4[N+](=O)[O-])o3)C(=O)NC2=S)cc1
8. O=C(CC1S/C(=N\N=C\c2cccs2)NC1=O)Nc1ccc(Cl)c(Cl)c1 (stereo unspecified)

Reply |
[129, 8.8, 151, 121, -1.5, -60.9, 15.9, 7.8]

Your task in this section: give displacement for each listed record.
1. O=c1nc(/C=C/c2ccc(-c3ccc([N+](=O)[O-])cc3Cl)o2)cc(C(F)(F)F)[nH]1
2. Cc1ccsc1/C=C(\C#N)c1nc(-c2ccc3c(c2)OCO3)cs1
3. Cc1ccsc1/C=C(/C#N)c1nc(-c2ccc(Br)cc2)cs1
4. Cc1ccc(N2C(=O)NC(=O)/C(=C\c3ccc(-c4cccc([N+](=O)[O-])c4)o3)C2=O)cc1
5. Cc1ccc(C(=O)/C=C/Nc2cccc(O)c2)cc1
6. COc1ccc(-c2ccc(/C=C3/C(=O)NC(=O)N(c4ccc(C)cc4)C3=O)o2)c([N+](=O)[O-])c1
7. O=c1oc(/C=C\c2ccccc2)nc2ccc(Br)cc12
8. O=C(NCCCc1ccccc1)c1ccccc1

Reply |
11.9
-27
132
-5.9
-0.4
83.5
10.7
-1.3

Dear colleague, could you please provide displacement for the molecules listed below?
1. N#C/C(=C\c1ccccc1Cl)c1nc(-c2cccs2)cs1
2. O=C(CC1S/C(=N\N=C\c2ccco2)NC1=O)Nc1ccc(C(=O)O)cc1 (stereo unspecified)

Reply |
1. -9.2
2. -0.3
